# Target system: Nav 1.7 (Homo sapiens (Human))
# Sequence (Q15858 whole entry): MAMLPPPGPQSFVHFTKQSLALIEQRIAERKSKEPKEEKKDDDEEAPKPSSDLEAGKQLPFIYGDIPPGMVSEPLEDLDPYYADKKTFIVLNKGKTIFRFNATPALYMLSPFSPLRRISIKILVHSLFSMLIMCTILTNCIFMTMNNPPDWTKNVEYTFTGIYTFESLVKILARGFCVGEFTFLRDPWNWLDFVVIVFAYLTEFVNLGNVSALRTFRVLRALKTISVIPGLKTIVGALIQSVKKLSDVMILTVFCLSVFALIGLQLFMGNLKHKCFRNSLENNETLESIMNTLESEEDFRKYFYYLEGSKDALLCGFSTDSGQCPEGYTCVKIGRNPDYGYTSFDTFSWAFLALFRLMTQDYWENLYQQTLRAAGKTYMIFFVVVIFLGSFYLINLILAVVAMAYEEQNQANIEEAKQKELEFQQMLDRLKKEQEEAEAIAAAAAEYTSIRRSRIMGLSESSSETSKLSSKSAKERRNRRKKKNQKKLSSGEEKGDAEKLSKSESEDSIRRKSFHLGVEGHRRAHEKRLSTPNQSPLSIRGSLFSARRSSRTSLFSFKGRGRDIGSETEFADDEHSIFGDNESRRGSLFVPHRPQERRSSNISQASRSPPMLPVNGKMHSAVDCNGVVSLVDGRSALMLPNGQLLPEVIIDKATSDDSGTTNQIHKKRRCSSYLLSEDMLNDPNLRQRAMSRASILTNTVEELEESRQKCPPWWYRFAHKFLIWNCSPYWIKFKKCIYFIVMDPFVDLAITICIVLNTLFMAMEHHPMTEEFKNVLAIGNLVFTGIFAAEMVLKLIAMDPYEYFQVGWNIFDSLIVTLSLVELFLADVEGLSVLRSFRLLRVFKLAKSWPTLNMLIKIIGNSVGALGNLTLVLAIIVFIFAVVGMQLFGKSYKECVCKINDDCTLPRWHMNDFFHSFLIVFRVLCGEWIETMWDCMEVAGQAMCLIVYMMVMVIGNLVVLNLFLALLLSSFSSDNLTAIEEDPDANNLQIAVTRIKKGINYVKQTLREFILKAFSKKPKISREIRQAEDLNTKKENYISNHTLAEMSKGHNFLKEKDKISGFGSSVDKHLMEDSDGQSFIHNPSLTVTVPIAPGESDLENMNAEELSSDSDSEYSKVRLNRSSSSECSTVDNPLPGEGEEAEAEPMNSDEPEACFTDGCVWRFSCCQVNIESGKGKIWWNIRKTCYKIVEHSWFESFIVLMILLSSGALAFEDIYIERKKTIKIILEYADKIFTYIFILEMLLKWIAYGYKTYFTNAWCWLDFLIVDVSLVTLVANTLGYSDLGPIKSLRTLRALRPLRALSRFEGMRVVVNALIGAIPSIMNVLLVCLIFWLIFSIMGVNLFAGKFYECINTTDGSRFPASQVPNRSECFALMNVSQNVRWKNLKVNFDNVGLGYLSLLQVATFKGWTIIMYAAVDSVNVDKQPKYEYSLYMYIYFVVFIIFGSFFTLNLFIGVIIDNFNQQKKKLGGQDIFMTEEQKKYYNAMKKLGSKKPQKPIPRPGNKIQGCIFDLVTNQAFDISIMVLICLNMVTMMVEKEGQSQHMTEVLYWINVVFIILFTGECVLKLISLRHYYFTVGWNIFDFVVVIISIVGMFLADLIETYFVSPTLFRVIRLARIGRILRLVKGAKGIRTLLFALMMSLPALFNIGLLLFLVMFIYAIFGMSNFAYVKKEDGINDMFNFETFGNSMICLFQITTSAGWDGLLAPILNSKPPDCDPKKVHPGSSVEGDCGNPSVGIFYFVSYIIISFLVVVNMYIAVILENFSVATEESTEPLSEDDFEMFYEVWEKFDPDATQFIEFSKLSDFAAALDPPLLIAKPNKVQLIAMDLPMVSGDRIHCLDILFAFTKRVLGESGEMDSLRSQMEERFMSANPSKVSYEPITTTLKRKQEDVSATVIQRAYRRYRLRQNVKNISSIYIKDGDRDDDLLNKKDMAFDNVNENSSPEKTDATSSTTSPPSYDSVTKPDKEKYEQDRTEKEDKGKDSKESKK
# Protocol details: Nav 1.7 in vitro PatchExpress (PX) assay, whole cell voltage clamp
# Type: cell-based
# Protocol conditions: 293 cells stably transfected with human Nav1.7; partially inactivated state (20 to 50% inactivation)
Result type: IC50 (nM)
One number for each entry, in nM.

{"Structure as smiles": "Cn1nccc1-c1cc(C(F)(F)F)ccc1-c1cccc2c1CCN(S(=O)(=O)Nc1nccs1)C2", "Target system": "Nav 1.7 (Homo sapiens (Human))", "IC50 [nM]": 2010}
{"Structure as smiles": "O=S(=O)(Nc1ncns1)N1CCc2c(cccc2-c2ccc(C(F)(F)F)cc2N2CCOCC2)C1", "Target system": "Nav 1.7 (Homo sapiens (Human))", "IC50 [nM]": 1740}
{"Structure as smiles": "O=S(=O)(Nc1ncns1)N1CCc2c(cccc2-c2cccc3ccccc23)C1", "Target system": "Nav 1.7 (Homo sapiens (Human))", "IC50 [nM]": 4910}

For the next question, use this compound.
State the recorded IC50 for this entry: `COc1ccc(F)cc1-c1cccc2c1CCN(S(=O)(=O)Nc1ncns1)C2`
370
